What GI50 was measured for each of the following?
- Test system: LOX IMVI
- assay-overview: NCI tumour cell line growth inhibition, 48 h
The source made the active and inactive calls. Cut-off read from the data, not from the text of the source: active = GI50 up to about 1.1 µM and inactive = higher.

**Q:** I'd like to know its GI50. The compound in question is CCCCCCc1cc2cc(-c3csc(CC#N)n3)c(=O)oc2cc1O
**A:** > 100 µM (inactive)

**Q:** Could you do the same for C#CCN(Cc1ccc2nc(-c3ccccc3)c(Cl)nc2c1)c1ccc(F)cc1 , please?
**A:** > 100 µM (inactive)

**Q:** Ok, now CC(=O)OCC1OC(Oc2cc(C)c(O)cc2C/C=C(\C)CC/C=C(\C)C[C@@H](C=C(C)C)OC(C)=O)C(O)C(OC(C)=O)C1OC(C)=O (some centres undefined)
**A:** 13.9 µM (inactive)

**Q:** Please do the same for CCOC(=O)C[C@@]12CCCNC1(C)CCc1ccccc12 (some centres undefined) as well.
**A:** > 100 µM (inactive)

**Q:** Let us now turn to COC1=CC(=O)[C@@]2(C)C(C)[C@H](c3ccccc3)[C@H]2C1=O (some centres undefined)
**A:** > 100 µM (inactive)

**Q:** Item: COC(=O)c1cc(NC(=O)Cn2c3ccccc3c3ccccc32)cn1C
**A:** 53.3 µM (inactive)

**Q:** Please do the same for CC(=O)O[C@@H]1C[C@@]23C[C@@]24CC[C@H](OC2OCC(O)C(O)C2O)C(C)(C)[C@@H]4CC=C3[C@]2(C)C[C@@H]3OC4(C[C@@H](C)[C@@H]3[C@@]12C)OC(O)[C@@]1(C)O[C@@H]41 (some centres undefined) as well.
**A:** 23.4 µM (inactive)

**Q:** Next entry: COC1(OC)CC2C(=O)N(Cc3ccccc3)C1C(S(=O)(=O)c1ccccc1)C2S(=O)(=O)c1ccccc1 (centres undefined)
**A:** 10.2 µM (inactive)

**Q:** Would you mind doing Nc1ccc(SC23CC4CC(CC(C4)C2)C3)cc1 as well?
**A:** > 100 µM (inactive)

###

- Test system: OVCAR-5
- assay-overview: NCI tumour cell line growth inhibition, 48 h
Active and inactive are the calls of the source. Cut-off read from the data, not from the text of the source: active = GI50 up to about 1.1 µM and inactive = higher. Where a SMILES comes first, the peptide text is derived from it. [ ]: non-standard residue; d: D form. The star is where a group is joined. Phe(4-NO2) = N[CH](Cc1ccc([N+](=O)[O-])cc1)C(=O)O; Boc = CC(C)(C)OC(=O)*
Provide the recorded GI50 for the entries that follow.

**Q:** Find the measured GI50: item CC#CCCCC1(C)CCCNC1=S (stereo not given) , target or system OVCAR-5.
**A:** > 10 µM (inactive)

**Q:** Do the same for ClC/C=C/COC1CCCCO1 (stereo not given) please
**A:** > 100 µM (inactive)

**Q:** Same thing, different compound: CCCCCCCc1cscc1-c1cscc1Br
**A:** 39.3 µM (inactive)

**Q:** One more compound: CCOC(=O)CCC(NC(=O)C(Cc1ccc([N+](=O)[O-])cc1)NC(=O)OC(C)(C)C)C(=O)NC(CCC(=O)OCC)C(=O)OCC (stereo not given) (Boc-[Phe(4-NO2)]-Glu(OEt)-Glu(OEt)-OEt; configuration not given here)
**A:** 20.7 µM (inactive)

**Q:** Likewise for Cc1ccc(S(=O)(=O)N2CCCC2C(=O)O[C@H]2CC[C@H]3CC=C[C@H]32)cc1 (stereo not given in full) ?
**A:** > 100 µM (inactive)

**Q:** Queued: Sc1ncc(-c2cncc(-c3cnc(S)nc3)n2)cn1
**A:** > 100 µM (inactive)

**Q:** Do the same for C=CCNC(=O)N(CCC)CCCC(NC(C)=O)C(=O)NCc1ccccc1 (stereo not given) please
**A:** > 100 µM (inactive)

**Q:** Same for CC1(C)C2CCC(O)(C2)C1N (stereo not given)
**A:** > 100 µM (inactive)

**Q:** Moving on to COC(=O)c1cc(NC(=O)Cn2c3ccccc3c3ccccc32)cn1C
**A:** > 100 µM (inactive)

**Q:** Quick one: CCNC(=O)COc1ccc(Cl)c(C)c1
**A:** > 100 µM (inactive)

**Q:** Try the compound O=c1oc2ccc([N+](=O)[O-])cc2c(Nc2ccc3c(c2)S(=O)(=O)c2ccccc2O3)c1[N+](=O)[O-]
**A:** > 100 µM (inactive)

**Q:** // query: CCOC(=O)C(C)c1nc2c(Cl)c3ncccc3cc2[nH]c1=O (stereo not given)
**A:** > 100 µM (inactive)

**Q:** And O=c1cc(-c2ccccc2F)[nH]c2cc3c(cc12)OCO3 ?
**A:** 1.31 µM (inactive)

**Q:** How about this compound: CC[C@H]1OC([C@H](O)C/C=C\C#C[Si](C)(C)C)C/C=C\C[C@H]1O[Si](C)(C)C(C)(C)C (stereo not given in full)
**A:** > 100 µM (inactive)

**Q:** And the next one, FC(F)(Sc1nc2ccccc2[nH]1)c1nc2ccccc2o1 ?
**A:** > 100 µM (inactive)

###

- Test system: NCI-H522
- assay-overview: NCI tumour cell line growth inhibition, 48 h
The source made the active and inactive calls. Cut-off read from the data, not from the text of the source: active = GI50 up to about 1.1 µM and inactive = higher.
Could you please pick one outcome from this set? active, inactive

**Q:** For this compound, state the assay outcome: C=C1C(=O)O[C@H]2C/C(C)=C/CC[C@]3(C)CCC[C@](C)(CC[C@@H]12)O3
**A:** inactive

**Q:** Same lookup for COc1cccc(/C(CC(O)(C(F)(F)F)C(F)(F)F)=N\N(C)C)c1 , please.
**A:** inactive

**Q:** What do we get for c1ccc2sc(C3(N4CCCCC4)CCCC3)cc2c1 ?
**A:** inactive

**Q:** Next compound: COc1nc2c(c(=O)[nH]1)N=C(c1ccccc1)CC(c1ccccc1)N2 (configuration not stated)
**A:** inactive

**Q:** Then what about the compound COc1ccc2c(c1)OC(c1ccccc1O)CC2=O (configuration not stated) ?
**A:** inactive

**Q:** Also COc1cc(S(=O)(=O)Nc2nc(-c3ccc(N4C(=O)/C(=C/c5ccccc5[N+](=O)[O-])N=C4c4ccccc4)cc3)cs2)ccc1Cl , if possible.
**A:** inactive

**Q:** What about CC1(Br)Cc2ccccc2C1=O (configuration not stated) ?
**A:** inactive

**Q:** Entry to check: Cc1c(C(=O)C/C(=N/NC(=O)c2ccccc2O)C(=O)Nc2ccccc2C(C)C)[n+]([O-])c2ccccc2[n+]1[O-]
**A:** inactive

**Q:** # repeat for COc1ccc2c(c1)C(=O)C1CC(=O)CCC21 (configuration not stated)
**A:** inactive

**Q:** Now consider COc1cc2c(cc1OC)C1(COc3cc(O)c(O)c(O)c3C1=O)C2 (configuration not stated) and answer again.
**A:** inactive

**Q:** Please answer likewise for FC(F)(Sc1nc2ccccc2[nH]1)c1nc2ccccc2o1
**A:** inactive

**Q:** Same thing, different compound: O=c1cc(-c2ccccc2F)[nH]c2cc3c(cc12)OCO3
**A:** active

###

- Tested on: A498
- assay-overview: NCI tumour cell line growth inhibition, 48 h
Activity calls are given as the source filed them. Cut-off read from the data, not from the text of the source: active = GI50 up to about 1.1 µM and inactive = higher.
Pick one: active, inactive

**Q:** What outcome does the record of this test show for CCOC(=O)C1C(=O)CC1(C)C (centres undefined) ?
**A:** inactive

**Q:** Try CCCCCCCCCCC(=O)CCCCCCC(=O)O next.
**A:** inactive

**Q:** And CC(C)SC1SCC2C(=O)N(C)C3(CC3C)C(=O)OCC(NC(=O)c3nc4ccccc4cc3O)C(=O)NC(C)C(=O)N(C)C1C(=O)N(C)C1(CC1C)C(=O)OCC(NC(=O)c1nc3ccccc3cc1O)C(=O)NC(C)C(=O)N2C (centres undefined) ?
**A:** active

**Q:** What do you have for O=C(O)CN1CCNCCN(CP(=O)(O)O)CC1 ?
**A:** inactive

###

- Test system: SK-MEL-5
- assay-overview: NCI tumour cell line growth inhibition, 48 h
Calls of active or inactive are those of the source. No stated cut-off is given here; in the data, active = GI50 up to about 1.1 µM and inactive = higher.
reported-endpoint: GI50

**Q:** // GI50 lookup, key: COC(=O)[C@]1(c2cc3ccccc3n2S(=O)(=O)c2ccccc2)CC2CN(C(C)=O)C1CC2=O (some centres undefined)
**A:** 3.27 µM (inactive)

**Q:** C(=N\c1nc2cc3sc(/N=C/c4cccs4)nc3cc2s1)/c1cccs1 ?
**A:** 33 µM (inactive)

**Q:** Record: CCCCC1Nc2ccccc2-c2ccnc(Cl)c21 (centres undefined)
**A:** 15.2 µM (inactive)

**Q:** Also check O=C(Cc1ccccc1)N/N=C(/c1nc2ccc([N+](=O)[O-])cc2nc1O)C(O)c1ccccc1Cl (centres undefined)
**A:** 41.4 µM (inactive)

###

- Tested on: DMS-273
- assay-overview: NCI tumour cell line growth inhibition, 48 h
Calls of active or inactive are those of the source. Rule as the data show it: active = GI50 up to about 1.1 µM and inactive = higher.
Choose the fitting class; nothing outside 1 (yes) (active), 0 (no) (inactive) is accepted.

**Q:** Look up the recorded call for COc1cc([C@@H]2c3cc4c(cc3[C@@H](NC(=O)c3ccc(OC(C)=O)cc3)C3COC(=O)[C@@H]32)OCO4)cc(OC)c1O (stereo partly specified) in this test.
**A:** 1 (yes)

**Q:** Next compound up: COc1ccc(NC(=O)C(=O)NNC(=O)c2sc(NNC(C)=O)nc2C)c([N+](=O)[O-])c1
**A:** 0 (no)

**Q:** // query: COc1ccc(/C=C/c2nnc(S)[nH]2)cc1OC
**A:** 0 (no)

**Q:** Repeat for the following compound: O=C(NC(Cc1ccc(Cl)cc1)C(=O)O)c1ccc(I)cc1 (stereo unspecified)
**A:** 0 (no)

**Q:** Also N#CCN1C(=O)c2cc([N+](=O)[O-])cc3cc([N+](=O)[O-])cc(c23)C1=O , if possible.
**A:** 0 (no)

**Q:** Item: COc1cc(CO)cc2c1[nH]c1ccccc12 [KOENOLINE]
**A:** 0 (no)
